- System: bordetella brochiseptica
- assay protocol: agar serial dilution test, minimum inhibitory concentration
- Type: cell-based
- test parameters: BO BR strain 4617
reported endpoint: MIC (µg/mL)

[[record]]
test_smiles = "CC(=O)OCC1=C(C(=O)O)N2C(=O)[C@@H](NC(=O)CSC(SCC#N)=C(C#N)C#N)[C@H]2SC1"
reported_endpoint = "MIC"
measured = 62.5

[[record]]
test_smiles = "CCOC(=O)CSC(=NC#N)SCC(=O)N[C@@H]1C(=O)N2C(C(=O)O)=C(COC(C)=O)CS[C@H]12"
reported_endpoint = "MIC"
measured = 250

[[record]]
test_smiles = "CC(=O)OCC1=C(C(=O)O)N2C(=O)[C@@H](NC(=O)CSC(=NC#N)SCC#N)[C@H]2SC1"
reported_endpoint = "MIC"
measured = 15.6

[[record]]
test_smiles = "CC(=O)OCC1=C(C(=O)O)N2C(=O)[C@@H](NC(=O)CSC(=NC#N)SCc3ccc([N+](=O)[O-])cc3)[C@H]2SC1"
reported_endpoint = "MIC"
measured = 125

[[record]]
test_smiles = "CC(=O)OCC1=C(C(=O)O)N2C(=O)[C@@H](NC(=O)CSC(=NC#N)SCc3ccc(Cl)cc3)[C@H]2SC1"
reported_endpoint = "MIC"
measured = 125

[[record]]
test_smiles = "CC(=O)OCC1=C(C(=O)O)N2C(=O)[C@@H](NC(=O)CSC(=NC#N)SCc3cccc(Cl)c3)[C@H]2SC1"
reported_endpoint = "MIC"
measured = 250

[[record]]
test_smiles = "CC(=O)OCC1=C(C(=O)O)N2C(=O)[C@@H](NC(=O)CSC(=C[N+](=O)[O-])SCC#N)[C@H]2SC1"
reported_endpoint = "MIC"
measured = 125

[[record]]
test_smiles = "C=CCSC(=NC#N)SCC(=O)N[C@@H]1C(=O)N2C(C(=O)O)=C(COC(C)=O)CS[C@H]12"
reported_endpoint = "MIC"
measured = 125

[[record]]
test_smiles = "CSC(=NC#N)SCC(=O)N[C@@H]1C(=O)N2C(C(=O)O)=C(COC(C)=O)CS[C@H]12"
reported_endpoint = "MIC"
measured = 125

[[record]]
test_smiles = "CCOC(=O)CSC(SCC(=O)N[C@@H]1C(=O)N2C(C(=O)O)=C(COC(C)=O)CS[C@H]12)=C(C#N)C#N"
reported_endpoint = "MIC"
measured = 250

[[record]]
test_smiles = "CC(=O)OCC1=C(C(=O)O)N2C(=O)[C@@H](NC(=O)CSC(=C[N+](=O)[O-])SCc3ccccc3)[C@H]2SC1"
reported_endpoint = "MIC"
measured = 250

[[record]]
test_smiles = "CC(=O)OCC1=C(C(=O)O)N2C(=O)[C@@H](NC(=O)CSC(SCC#N)=C(C#N)c3ccccc3)[C@H]2SC1"
reported_endpoint = "MIC"
measured = 250

[[record]]
test_smiles = "CC(=O)OCC1=C(C(=O)O)N2C(=O)[C@@H](NC(=O)CSC(=NC#N)SCc3ccccc3)[C@H]2SC1"
reported_endpoint = "MIC"
measured = 15.6

[[record]]
test_smiles = "CC(=O)OCC1=C(C(=O)O)N2C(=O)[C@@H](NC(=O)CSC(=NS(C)(=O)=O)SCC#N)[C@H]2SC1"
reported_endpoint = "MIC"
measured = 62.5

